System Tested: T1, HCV Core1-169 (HCV-1, UniProt P26664 1-169)
T1 construct: also called Solid Phase HCV Core
T1 sequence: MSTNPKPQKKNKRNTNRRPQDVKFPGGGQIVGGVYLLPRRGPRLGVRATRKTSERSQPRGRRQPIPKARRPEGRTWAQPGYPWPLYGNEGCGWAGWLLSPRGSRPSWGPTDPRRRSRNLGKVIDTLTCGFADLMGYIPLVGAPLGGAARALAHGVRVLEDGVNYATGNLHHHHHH
Assay Overview: sandwich EIA, capture 208B-741

| Binder | OD492, OD |
| --- | --- |
| HCV 208A-692 (antibody, V domains shown) VH: QGQMQQSGAELAKPGASVKLSCKTSGFTFSSSYISWLKQKPGQSLEWIAWIFAGTGNTNYNQKFTDKAQLTVDTSSSTAYMQLSSLTTEDSAIYYCAISGTGFTYWGQGTLVTVSA VL: EVLMTQSPLSLPVSLGDQASISCRSSQSLEHSNGNTYLEWFLQRPGQPPKLLIYKVSSRFSGVPDRFSGSGSGTDFTLKISRVEAEDLGVYYCFQGSHVPFTFGSGTKLAIKR | 0.44 |
| HCV 208B-1096 (antibody, V domains shown) VH: QVQLQQSGAGLAKPGASVKMSCKASGYTFTANKMHWAKQRPGQGLEWIGYIDPSSGYTEYNHKIQYKATLTADTSSSTAYMQLSTLTFEDSAVYYCTNFAYWGQGTLVTVSA VL: DIVMTQTPLTLSVTIGQPASISCKSSQSLLFTNGKTYLNWFLQRPGQSPKRLIYLLSKLDSGVPDRFSGSGSGTDFTLKISRVEAEDLGVYYCLQSTYFPLTFGAGTKLELKR | 0.23 |
| HCV 208A-207 (antibody, V domains shown) VH: QGQLQQPGAEFVKPGASLKLSCRASGYTFTSYWIHWVKQRPGQGLEWIGEIDPSDSYINQNQKFRGKATLTVDKSSSTAYMELSGLTSEDSAVYYCARHYYGVLDSWGQGTTLTVSS VL: DIVLTQSPATLSVTPGDRVSLSCRASQRIYNYLHWYQQKSHESPRLLTKYASQSISGIPSRFSGSGSGTDFILTINSVETEDFGMYFCQQSNSWPLTFGAGTKLELRR | 0.3 |
